The measurements presented in this section are drawn from patent US20240376198A1.

- TARGET_SYSTEM: T1, human NKp46 (human, UniProt O76036 22-304)
- T1 construct: also called CD335; NCR1
- T1 sequence (O76036 22-304 Q82K): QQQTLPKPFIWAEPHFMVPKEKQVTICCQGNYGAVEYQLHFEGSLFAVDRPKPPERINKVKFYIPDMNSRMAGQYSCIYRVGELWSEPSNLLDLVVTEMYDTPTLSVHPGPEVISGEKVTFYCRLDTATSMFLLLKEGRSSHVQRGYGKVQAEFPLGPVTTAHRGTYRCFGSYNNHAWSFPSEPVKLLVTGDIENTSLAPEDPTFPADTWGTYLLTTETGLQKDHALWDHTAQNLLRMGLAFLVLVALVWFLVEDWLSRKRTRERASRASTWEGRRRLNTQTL
- PROCEDURE_DETAILS: flow cytometry, HEK293F cells transfected with human NKp46
METRIC: Bmax (MFI)
Give the value, in units of MFI, as a plain number.

In: Give the measured Bmax (MFI) for NKp46-hz5D7v13-Fc* (Fc fusion, VHH-Fc fusion with an IgG1 Fc lacking a hinge (Fc*)) EVQLVESGGGEVQPGGSLRLSCAASGRTFASAAMGWFRQAPGKEREFVAAISRSDDTYYAESVKGRFTISRDNAKNTVYLQMSSLRAEDTAVYYCAAVVPTYGNTIYVHSAAYNYWGQGTLVTVKPGGGGPSVFLFPPKPKDTLMISRTPEVTCVVVDVSHEDPEVKFNWYVDGVEVHNAKTKPREEQYNSTYRVVSVLTVLHQDWLNGKEYKCKVSNKALPAPIEKTISKAKGQPREPQVYTLPPSRDELTKNQVSLTCLVKGFYPSDIAVEWESNGQPENNYKTTPPVLDSDGSFFLYSKLTVDKSRWQQGNVFSCSVMHEALHNHYTQKSLSLSPG
Out: 150000
